- target-under-test: sphingosine-1-phosphate receptor 1 (S1PR1) (Homo sapiens)
- Sequence (P21453 whole entry, species assumed): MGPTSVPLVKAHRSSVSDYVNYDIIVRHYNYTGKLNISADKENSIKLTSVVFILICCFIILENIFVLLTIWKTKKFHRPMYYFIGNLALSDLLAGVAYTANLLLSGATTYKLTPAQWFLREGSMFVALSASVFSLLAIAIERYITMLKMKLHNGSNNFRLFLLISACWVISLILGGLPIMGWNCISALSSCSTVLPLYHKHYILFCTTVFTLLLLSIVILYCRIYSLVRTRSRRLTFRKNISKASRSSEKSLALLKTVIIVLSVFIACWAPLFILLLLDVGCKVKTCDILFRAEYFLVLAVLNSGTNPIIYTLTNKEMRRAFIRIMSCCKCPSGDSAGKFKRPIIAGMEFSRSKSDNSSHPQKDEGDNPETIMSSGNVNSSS
- assay: Radioligand binding to sphingosine-1-phosphate receptor 1
- condition: test compound 100 nM, 0.2 nM radioligand; read-out: % INHIBITION of binding to the SIP1 Receptor
measured-parameter: inhibition at 0.1 µM (%)

compound	inhibition at 0.1 µM / %
COc1cc2c(cc1OC)C1(NCC2)C(=O)Nc2ccccc21 (centres unmarked)	39.1
COc1cc2c(cc1OC)C1(NCC2)C(=O)N(Cc2ccc(F)cc2)c2ccccc21 (centres unmarked)	40
COc1cc2c(c(OC)c1OC)C1(NCC2)C(=O)Nc2ccc(Cl)cc21 (centres unmarked)	41.1
